Tested on: L1210 leukemia ip in BDF1 mice, survival T/C
assayRemarks: NCI In Vivo Anticancer Drug Screen. Data for tumor model L1210 Leukemia (intraperitoneal) in B6D2F1 (BDF1) mice
measurementConditions: endpoint: mean survival time; dose: 200.0 mg/kg/injection; schedule: Q04DX003 (ip); vehicle: saline; higher = longer survival
Toxic doses and inconclusive results are not listed. Square brackets hold non-standard residues; d marks the D form. Peptide text beside a SMILES is read from it. ξ: configuration not given here. ξF = NC(Cc1ccccc1)C(=O)O
quantity: T/C

compound	T/C
O=[N+]([O-])c1ccc(C(Br)C(Br)c2ccccc2Br)cc1 (configuration not stated)	98 % of control
CCC(Cc1ccccc1Br)C1=NC(C)(C)CO1 (configuration not stated)	107 % of control
COc1ccc(CN(CCO)S(C)(=O)=O)cc1	96 % of control
CCCN(CCC)CCC(=O)O	108 % of control
CC1(C)OCC2OC(N)C(O)C2O1 (configuration not stated)	89 % of control

Summary for this compound, `CCOC(=O)C(C)(C(=O)OCC)c1ccccc1` : T/C is 97 % of control

Form field T/C, entry NC(Cc1ccccc1)C(=O)NCC(=O)O (configuration not stated) (H-[ξF]-Gly-OH) : 97 % of control

# T/C of `NN1N=Nc2cccc3cccc1c23` = 91 % of control

Briefly, T/C measured for `CNC(=O)C(C)(C)Br` : 109 % of control

Entry under test: `N#C/C(=N\Nc1ccc(S(=O)(=O)O)cc1)C(N)=O` . Its T/C was 100 % of control

----------
System: L1210 leukemia ip in BDF1 mice, survival T/C
assayRemarks: NCI In Vivo Anticancer Drug Screen. Data for tumor model L1210 Leukemia (intraperitoneal) in B6D2F1 (BDF1) mice
measurementConditions: endpoint: mean survival time; dose: 12.5 mg/kg/injection; schedule: Q04DX002 (ip); vehicle: Klucel (hydroxypropylcellulose) (HPC); higher = longer survival
Inconclusive results and toxic doses are left out.
quantity: T/C

Example cases with answers are listed next.
compound	quantity	observedMeasurement
O=[N+]([O-])c1ccc(SC2=NCCCN2)c([N+](=O)[O-])c1	T/C	106 % of control
CC(=O)[O][Pb]([CH2]C(C)C)([CH2]C(C)C)[CH2]C(C)C	T/C	96 % of control
NC(N)=Nc1ccc([N+](=O)[O-])cc1	T/C	103 % of control
CC12CC3CC(C)(C1)CC(CN=C(N)CCl)(C3)C2	T/C	96 % of control
CC(=O)OC1CCC2(C)C(=CCC3C2CCC2(C)C3CC3C(c4ccccc4C)=NN(c4ccccc4)C32C#N)C1 (stereo unspecified)	T/C	102 % of control

Field T/C (entry `Cc1cccc(C(=O)[O][Pb]([CH3])([CH3])[CH3])c1` ) reads 100 % of control

----------
Listing of recorded T/C by entry.
System: L1210 leukemia ip in BDF1 mice, survival T/C
assayRemarks: NCI In Vivo Anticancer Drug Screen. Data for tumor model L1210 Leukemia (intraperitoneal) in B6D2F1 (BDF1) mice
measurementConditions: endpoint: mean survival time; dose: 50.0 mg/kg/injection; schedule: Q01DX001 (ip); vehicle: carboxymethylcellulose (CMC); higher = longer survival
Method: The antitumor activity of compounds was measured in mice bearing transplantable tumors. Survival or tumor size were measured and the results are expressed as the measurement made in the treated group (T) divided by the measurement made in the vehicle treated control group (C). The tumor model used in this assay is L1210 Leukemia (intraperitoneal) in B6D2F1 (BDF1) mice
Toxic doses and inconclusive results are not listed.

Solved entries (count: 2):
compound	T/C
CCCC(C(CC)CNC(=O)Nc1cccc2ccccc12)N(C)C(=O)Nc1cccc2ccccc12 (centres undefined)	109 % of control
CSc1nn2c(SC)nnc2s1	104 % of control

Per the record, `Cc1cc(C)c(C(=O)N/N=C/c2ccc(N(CCCl)CCCl)cc2)c(=O)[nH]1` has T/C of 97 % of control

For record `c1ccc2c(c1)Sc1ccccc1S2` the listed T/C is 106 % of control

Briefly, T/C measured for O=C(OC1(c2ccccc2)CC2CC1c1ccccc12)c1ccc([N+](=O)[O-])cc1 (centres undefined) : 88 % of control

`O=S1(=O)C=CCC1` yielded T/C of 100 % of control

The compound identified as `CCOC(=O)N1CCCCC1` registered its T/C at 95 % of control

The recorded T/C for `S=C(Nc1ccccc1)N1CCCCC1` is 97 % of control

Lab note: measured T/C of `CCCCC(=O)N1CCCCC1` was 104 % of control

----------
Tested on: L1210 leukemia ip in BDF1 mice, survival T/C
assayRemarks: NCI In Vivo Anticancer Drug Screen. Data for tumor model L1210 Leukemia (intraperitoneal) in B6D2F1 (BDF1) mice
measurementConditions: endpoint: mean survival time; dose: 50.0 mg/kg/injection; schedule: Q04DX003 (ip); vehicle: saline; higher = longer survival
Inconclusive results and toxic doses are left out.
In this section we review reported T/C values for a set of compounds.

compound	observedMeasurement
COC(=O)C1C2CC3c4[nH]c5cc(OC)ccc5c4CCN3CC2CC(OC(=O)c2cc(OC)c(OC)c(OC)c2)C1OC (stereo unspecified)	119 % of control

T/C recorded for this compound, `CCOC(=O)c1nc2nc(Cl)c(Cl)nc2[nH]1` , is 105 % of control

What the record says about `O=C(Nc1c[nH]c(=O)[nH]c1=O)C(F)(F)F` : T/C is 103 % of control

Record `CC(=O)N1CCC(CC[P+](c2ccccc2)(c2ccccc2)c2ccccc2)CC1` , field T/C: 93 % of control

T/C reported for this compound [C-]#[N+]C1(C)CC1(c1ccccc1)c1ccccc1 (stereo unspecified) : 103 % of control

The recorded T/C for `CCCC(=O)N1CCC(C)CC1` is 100 % of control

----------
Tested on: L1210 leukemia ip in BDF1 mice, survival T/C
assayRemarks: NCI In Vivo Anticancer Drug Screen. Data for tumor model L1210 Leukemia (intraperitoneal) in B6D2F1 (BDF1) mice
measurementConditions: endpoint: mean survival time; dose: 50.0 mg/kg/injection; schedule: Q04DX002 (ip); vehicle: saline; higher = longer survival
Toxic doses and inconclusive results are not listed.
quantity: T/C

compound	quantity	observedMeasurement
CC(O)C1OC1C(C)O (centres undefined)	T/C	101 % of control

Record `CC(=O)Nc1ccc(Oc2ccc(NC(C)=O)cc2)cc1` , field T/C: 97 % of control

Notebook: COC1OCC(Cl)C(Cl)C1O (centres undefined) , T/C read as 110 % of control

Sample CC1(C(=O)O)COC(=O)N1 (centres undefined) ; T/C observed: 104 % of control

For reference, reported T/C for `CS(=O)(=O)OCOS(C)(=O)=O` stands at 119 % of control

The compound `CC(=O)NCc1cccc[n+]1[O-]` showed T/C equal to 105 % of control

Record summary for `Cc1ccnc(N)c1` : reported T/C = 96 % of control

get_value(item= Cc1cc(O)ccc1C1=[N+](C)CC(C)S1 (centres undefined) , readout=T/C) returns 103 % of control

Summary for this compound, `N#C/C(=C\c1cccn1Cc1cc2ccccc2c2ccccc12)C(N)=O` : T/C is 108 % of control

----------
System: L1210 leukemia ip in BDF1 mice, survival T/C
assayRemarks: NCI In Vivo Anticancer Drug Screen. Data for tumor model L1210 Leukemia (intraperitoneal) in B6D2F1 (BDF1) mice
measurementConditions: endpoint: mean survival time; dose: 100.0 mg/kg/injection; schedule: Q01DX009 (ip); vehicle: saline with Tween-80
Inconclusive results and toxic doses are left out. Rule as the data show it: active = T/C of 150% or more; inactive = T/C below 125%.
Select the matching outcome among active, inactive

See these solved cases before continuing.
molecule	measurementTarget	classAssignment
Nc1ccc(SCc2nc3cccc4c3n2CCC4)cc1	L1210 leukemia ip in BDF1 mice, survival T/C	inactive
O=C(O)COC(C[N+](=O)[O-])C(Cl)(Cl)Cl (centres undefined)	L1210 leukemia ip in BDF1 mice, survival T/C	inactive
CCN(CC)C(=O)/C=C\c1ccccc1	L1210 leukemia ip in BDF1 mice, survival T/C	inactive
O/N=C1/CCCC/C1=C/c1ccc(Cl)cc1	L1210 leukemia ip in BDF1 mice, survival T/C	inactive
CCOC(=O)c1cnc2ccc(OC)cc2c1Cl	L1210 leukemia ip in BDF1 mice, survival T/C	inactive

In: What is the recorded call for this molecule in the test? CC1CSCC(C)O1 (centres undefined)
Out: active

In: Would you mind telling me which call this test gave `CCCNC(=O)Oc1c(C(C)C)ccc(C)c1Cl` ?
Out: inactive

----------
System: L1210 leukemia ip in BDF1 mice, survival T/C
assayRemarks: NCI In Vivo Anticancer Drug Screen. Data for tumor model L1210 Leukemia (intraperitoneal) in B6D2F1 (BDF1) mice
measurementConditions: endpoint: mean survival time; dose: 200.0 mg/kg/injection; schedule: Q04DX002 (ip); vehicle: saline with Tween-80; higher = longer survival
Inconclusive results and toxic doses are left out.
The following compounds are listed with their measured T/C values.

The cases that follow already have their T/C on record.
compound	observedMeasurement
O=C(O)CCC(=O)c1ccccc1	105 % of control
O=C(O)c1cccc2c1-c1ccccc1C(Br)C2Br (stereo not drawn)	101 % of control
CC1Oc2ccccc2NC1=O (stereo not drawn)	106 % of control

// T/C value for `O=C(O)CCc1ccccc1-c1ccccc1` : 96 % of control

Entry `O=[N+]([O-])c1ccc(O)cc1` , T/C reported as 91 % of control

Item: CC12CCCCC1CC(=O)CC2 (stereo not drawn) | T/C: 86 % of control

Record summary for `c1ccc(P(N2CCOCC2)N2CCOCC2)cc1` : reported T/C = 97 % of control

Input `CC(C)(C)NC#SNC(C)(C)C` . Output T/C: 92 % of control
